Origin of the recorded values: patent US20230278972A1

Test system: blackgrass (Alopecurus myosuroides)
Assay: Test A1 preemergence, blackgrass
Assay type: in vivo
Conditions: 31 g ai/ha, 0 to 100 scale (0 no effect, 100 complete control)
I'd be grateful if you could share measured Plant response rating, Blackgrass for these entries.
Numbers only.

Return reported Plant response rating, Blackgrass values for all items listed beneath this line.
1. Cc1cc(C)c(N2CCC3(CCC(C)CC3)C2=O)cc1NS(=O)(=O)C(F)(F)F (stereo not shown)
2. Cc1cc(C)c(N(C(=O)OCC(C)C)S(=O)(=O)C(F)(F)F)cc1C1=NOC2CCCC12 (stereo not shown)
3. Cc1cc(C)c(N(C(=O)OC(C)C)S(=O)(=O)C(F)(F)F)cc1C1=NOC2CCCC12 (stereo not shown)
4. CCOC1CC(c2cc(NS(=O)(=O)C(F)(F)F)c(C)cc2C)=NO1 (stereo not shown)

Reply |
1: 70; 2: 0; 3: 0; 4: 30
